- Test system: SNB-75
- Test method notes: NCI tumour cell line growth inhibition, 48 h
Calls of active or inactive are those of the source. Rule as the data show it: active = GI50 up to about 1.1 µM and inactive = higher.
Classes used: yes for active, no for inactive

{"Compound": "NC(=O)c1nnc2c(F)cccc2c1N", "Cat": "no"}
{"Compound": "CC(O[Si](c1ccccc1)(c1ccccc1)C(C)(C)C)[C@H](NC(=O)OC(C)(C)C)C(=O)O[Si](c1ccccc1)(c1ccccc1)C(C)(C)C (stereo not given in full)", "Cat": "no"}
{"Compound": "CC(C)(C)c1cc(C2COC(=O)COCC(=O)OCCOCCOCCO2)cc(C(C)(C)C)c1O (stereo not given)", "Cat": "no"}
{"Compound": "O=C(O)Cc1cc(Cl)ccc1O", "Cat": "no"}
{"Compound": "O=C1NCN(c2ccccc2)C12CCN(CC1COc3ccccc3O1)CC2 (stereo not given)", "Cat": "no"}
{"Compound": "CN(C)CCCNC(CC#N)CCC#N (stereo not given)", "Cat": "no"}
{"Compound": "COc1c(O)cc2c(c1O)C1O[C@H](CO)C(O)[C@H](O)[C@H]1OC2=O (stereo not given in full)", "Cat": "no"}
{"Compound": "CC1=C2C(=O)NN=C2CCN1c1ccc(Br)cc1", "Cat": "no"}
{"Compound": "C[n+]1c(-c2ccc(/C=N\\NC(=O)c3ccc(C(=O)N/N=C/c4ccc(-c5cn6ccsc6[n+]5C)cc4)cc3)cc2)cn2ccsc21", "Cat": "no"}
{"Compound": "C#Cc1cccc(NC(=O)/C=C\\C(=O)O)c1", "Cat": "no"}
{"Compound": "CC(=O)O[C@]12CCCCC1C1(O)C(O)CCCCC12 (stereo not given in full)", "Cat": "no"}
{"Compound": "CSc1ccc(/C=C/C(=O)c2nc3ccccc3[nH]2)cc1", "Cat": "no"}
{"Compound": "COc1ccc(NC(=O)CSc2nnc(-c3ccc(/N=C\\c4ccc(Cl)cc4)cc3)o2)cc1", "Cat": "no"}
{"Compound": "O=C(CCC1CCCCC1)NCc1ccc(C(=O)O)cc1", "Cat": "no"}
{"Compound": "COC(=O)c1c(CC(Cc2ccc3c(c2)CCCC3)C(=O)OC)ccc2c1CCCC2 (stereo not given)", "Cat": "no"}
{"Compound": "CC1CCC(C(C)C2C(O)CC3C4CC=C5CC(O)CCC5(C)C4CCC32C)NC1 (stereo not given)", "Cat": "no"}
{"Compound": "Cc1c(Cl)ccc2c1NC(=O)C2(O)CC(=O)c1cccc2ccccc12 (stereo not given)", "Cat": "no"}
{"Compound": "C=C(COC(C)=O)CC(OC(C)=O)c1ccccc1 (stereo not given)", "Cat": "no"}
{"Compound": "CCCCCCCCCCCCCCCCOCC(COP(=O)([O-])OCC[n+]1ccc(N(C)C)cc1)OCC (stereo not given)", "Cat": "no"}
{"Compound": "CCCCCCCCCCCCCCCC(=O)Nc1ccn(C2CCC(COP(=O)(O)OCC3OC(n4cc(F)c(=O)[nH]c4=O)CC3OC(C)=O)O2)c(=O)n1 (stereo not given)", "Cat": "no"}
{"Compound": "COC(=O)c1ccc(CCc2cc(O)c(Br)cc2O)cc1", "Cat": "no"}
{"Compound": "Nc1ccc2c(c1)C(=O)N(O)C2=O", "Cat": "no"}
{"Compound": "CC1(C)OC2C(=O)C=C(COCc3ccccc3)C2O1 (stereo not given)", "Cat": "no"}
{"Compound": "O=C1C=C(Br)c2c(Br)sc(Br)c21", "Cat": "no"}
{"Compound": "OC1(c2ccc(Cl)cc2)c2ccccc2C2=Nc3ccccc3CN21 (stereo not given)", "Cat": "no"}
{"Compound": "O=C1c2ccccc2-c2[nH]c3cn[nH]c(=O)c3c21", "Cat": "no"}
{"Compound": "C=CC[C@H]1[C@H](O[Si](C)(C)C(C)(C)C)C=CC(=O)[C@@H]1CC(=O)OCC", "Cat": "no"}
{"Compound": "O=C(COc1ccc2c(=O)cc(-c3ccccc3)oc2c1)N1CCN(c2ccccc2)CC1", "Cat": "no"}
{"Compound": "O=C(O)C12C3CCC(CC3)C1(C(=O)O)C1CCC2C1 (stereo not given)", "Cat": "no"}
{"Compound": "C[C@H](CCC(=O)O)[C@H]1CC[C@@]2(C)[C@@H]3C(=O)C[C@H]4C(C)(C)[C@@H](O)CC[C@]4(C)[C@H]3C(=O)C[C@]12C", "Cat": "no"}
{"Compound": "O=C(/C=C(\\N=P(c1ccccc1)(c1ccccc1)c1ccccc1)C(F)(F)C(F)(F)C(F)(F)C(F)(F)C(F)(F)C(F)(F)C(F)(F)F)c1ccccc1", "Cat": "no"}
{"Compound": "COc1c(C)c2c(c(O)c1C/C=C(\\C)CCC(=O)O)C(=O)OC2", "Cat": "no"}
{"Compound": "c1cncc(CNCCN2CCNCC2)c1", "Cat": "no"}
{"Compound": "CC(C)(C)[Si](C)(C)OCC1OC(n2cnc3c(N)ncnc32)CC1O (stereo not given)", "Cat": "no"}
{"Compound": "C#CCOCC12C=CC(O1)C1C(=O)OCC12 (stereo not given)", "Cat": "no"}
{"Compound": "C=C(C)[C@@H]1CCC2=C[C@H](OC2=O)[C@@]2(C)C[C@@H]2C(=O)/C=C(/C)C(=O)[C@H]1OC(C)=O", "Cat": "no"}
{"Compound": "O=C(COC(=O)c1cccc2c(=O)c3ccccc3[nH]c12)Nc1ccc(S(=O)(=O)Nc2ncccn2)cc1", "Cat": "no"}
{"Compound": "CCOC(=O)C1CCCC1S(=O)(=O)c1ccc(C)cc1 (stereo not given)", "Cat": "no"}
{"Compound": "COc1ccc(-c2oc3c(OC)c(OC)c(OC)c(O)c3c(=O)c2OC)cc1O", "Cat": "yes"}
{"Compound": "COc1cccc2c1C(=O)c1c(O)c3c(c(O)c1C2=O)C[C@@](O)(C(C)=O)C[C@@H]3OC1CC(N(C)C)C(O)C(C)O1 (stereo not given in full)", "Cat": "yes"}
